Test system: rodent lifetime carcinogenesis bioassay, tumor incidence TD50
assayNotes: carcinogenic potency in animals, long-term in vivo studies, CPDB compilation (AID 1745844)
studyConditions: mouse; strain Swiss albino; males; by gavage; site: liver; lesion: hepatoma; dosed 52 weeks; study length 79 weeks
Calls of active or inactive are those of the source. No rule for the calls is given here.

{"compoundString": "CC=NN(C)C=O", "TD50": "11 mg/kg/day (inactive)"}

====

Test system: rodent lifetime carcinogenesis bioassay, tumor incidence TD50
assayNotes: carcinogenic potency in animals, long-term in vivo studies, CPDB compilation (AID 1745844)
studyConditions: rat; strain Fischer 344; females; in drinking water; site: palate + tongue; lesion: squamous-cell papilloma; dosed 91 weeks; study length 93 weeks

{"compoundString": "COc1cc(-c2ccc(N)c(OC)c2)ccc1N", "measureUnit": "mg/kg/day", "TD50": 16.6}

====

Test system: rodent lifetime carcinogenesis bioassay, tumor incidence TD50
assayNotes: carcinogenic potency in animals, long-term in vivo studies, CPDB compilation (AID 1745844)
studyConditions: rat; strain F344/DuCrj; males; in feed; site: urinary bladder; lesion: transitional-cell carcinoma; dosed 112 weeks; study length 112 weeks
parameter: TD50 (mg/kg/day)

{"compoundString": "Cc1nc(N)cc2[nH]c3ccccc3c12", "measurementTarget": "rodent lifetime carcinogenesis bioassay, tumor incidence TD50", "reportedValue": 59.9}

====

System: rodent lifetime carcinogenesis bioassay, tumor incidence TD50
assayNotes: carcinogenic potency in animals, long-term in vivo studies, CPDB compilation (AID 1745844)
studyConditions: mouse; strain B6C3F1; females; by gavage; site: lung; lesion: alveolar/bronchiolar adenoma + alveolar/bronchiolar carcinoma; dosed 52 weeks; study length 82 weeks

{"compoundString": "C[C@]12CC[C@@H]3c4ccc(OC(=O)Cc5ccc(N(CCCl)CCCl)cc5)cc4CC[C@H]3[C@@H]1CC[C@@H]2OC(=O)Cc1ccc(N(CCCl)CCCl)cc1", "TD50": "1.28 mg/kg/day"}

====

System: rodent lifetime carcinogenesis bioassay, tumor incidence TD50
assayNotes: carcinogenic potency in animals, long-term in vivo studies, CPDB compilation (AID 1745844)
studyConditions: mouse; strain CD-1 HaM/ICR; females; in feed; site: any site (literature study); lesion: several types; types named in the paper; dosed 68 weeks; study length 77 weeks
The source made the active and inactive calls. The rule behind the calls is not given here.
parameter: TD50

{"compoundString": "Nc1c(Cl)cc(Cl)cc1Cl", "reportedValue": "914 mg/kg/day (inactive)"}

====

Test system: rodent lifetime carcinogenesis bioassay, tumor incidence TD50
assayNotes: carcinogenic potency in animals, long-term in vivo studies, CPDB compilation (AID 1745844)
studyConditions: rat; strain CFN; both sexes; in feed; site: bile duct; lesion: adenoma; dosed 104 weeks; study length 104 weeks
parameter: TD50

{"compound": "CC(COc1ccc(C(C)(C)C)cc1)OS(=O)OCCCl (stereo unspecified)", "reportedValue": "1010 mg/kg/day"}

====

Test system: rodent lifetime carcinogenesis bioassay, tumor incidence TD50
assayNotes: carcinogenic potency in animals, long-term in vivo studies, CPDB compilation (AID 1745844)
studyConditions: rat; strain Fischer 344; males; in feed; site: mammary gland; lesion: fibroadenoma; dosed 103 weeks; study length 108 weeks
Calls of active or inactive are those of the source. No rule for the calls is given here.

{"compoundString": "CC(C)(c1ccc(O)cc1)c1ccc(O)cc1", "measurementTarget": "rodent lifetime carcinogenesis bioassay, tumor incidence TD50", "TD50": "675 mg/kg/day (inactive)"}
